Biological target: human dopamine D2 receptor (hD2R) (Homo sapiens)
Sequence (P14416 whole entry): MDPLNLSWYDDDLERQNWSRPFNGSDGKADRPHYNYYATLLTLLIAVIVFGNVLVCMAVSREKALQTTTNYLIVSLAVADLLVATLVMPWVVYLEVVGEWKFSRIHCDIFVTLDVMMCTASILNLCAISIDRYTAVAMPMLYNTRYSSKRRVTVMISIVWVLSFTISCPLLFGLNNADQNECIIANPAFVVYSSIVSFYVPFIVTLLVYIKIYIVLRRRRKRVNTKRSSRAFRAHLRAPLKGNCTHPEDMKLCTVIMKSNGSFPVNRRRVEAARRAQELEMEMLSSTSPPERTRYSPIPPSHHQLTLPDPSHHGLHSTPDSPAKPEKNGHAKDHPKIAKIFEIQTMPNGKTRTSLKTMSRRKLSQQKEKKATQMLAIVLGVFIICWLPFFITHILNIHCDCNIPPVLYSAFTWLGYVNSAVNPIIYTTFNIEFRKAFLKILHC
Assay: Human D2 receptor binding assay ([^3H]-Spiperone)
Conditions: CHO cells expressing hD2R, geometric mean of 2-5 determinations unless marked b (single determination)
Method: Human D2 Receptor and Human D3 Receptor Binding Assays: These determined ligand and tissue concentrations were utilized in time course studies to determine linearity and equilibrium conditions for binding. […] The hD2R assay buffer contains 50 mM Tris (pH 7.4 @ 37° C.), 100 mM NaCl and 1 mM MgCl2. […] Non-specific binding was determined by radioligand binding in the presence of a saturating concentration of Haldol (10 μM). […] Ki values were then calculated according to the Cheng-Prusoff equation: […]
pKi: −log10 of the molar value.
MEASUREMENT_TYPE: pKi

Would you please look over these solved cases?
molecule="COc1nc2c(cc1NS(=O)(=O)c1ccc(C3CCCOC3)cc1)CCN(C)CC2 (single isomer, unassigned) [Example 84]" value_measured=6.30
molecule=COc1nc2c(cc1NS(=O)(=O)c1ccc([C@@H]3CCCCO3)c(C)c1)CCN(C)CC2 value_measured=7.58
molecule=COc1nc2c(cc1NS(=O)(=O)c1ccc(OC(C)(C)C)nc1)CCN(C)CC2 value_measured=7.34
molecule=COc1nc2c(cc1NS(=O)(=O)c1ccc([C@H]3CC[C@@H](OC)CC3)cc1)CCN(C)CC2 value_measured=6.22
molecule=COc1nc2c(cc1NS(=O)(=O)c1cnc(OC(C)(C)C)nc1)CCN(C)CC2 value_measured=6.33

a. COc1nc2c(cc1NS(=O)(=O)c1ccc(OC3CCOC3)nc1)CCN(C)CC2 (stereo not shown)
b. CCN1CCc2cc(NS(=O)(=O)c3ccc([C@H]4C[C@@H](OC)C4)cc3)c(OC)nc2CC1
c. COc1nc2c(cc1NS(=O)(=O)c1ccc(OC3CCCC3)nc1)CCN(CCCF)CC2
d. CCCN1CCc2cc(NS(=O)(=O)c3ccc(C(C)C)cc3)c(OC(F)F)nc2CC1
e. COc1nc2c(cc1NS(=O)(=O)c1ccc(OC3CCCC3)nc1)CCN(C)CC2
Form: Sort by [pKi] Order [ ascending ] // respond by listing labels in the order requested
a, b, d, c, e

P. CCN1CCc2cc(NS(=O)(=O)c3ccc(C4CCCCO4)cc3)c(OC)nc2CC1 (single isomer, unassigned) [Example 73]
Q. CCOc1ccc(S(=O)(=O)Nc2cc3c(nc2OC(C)C)CCN(CC)CC3)cc1
Could you please tell me which of these two has the higher pKi: P or Q ? Answer = label.
Q
(Q: 7.44, P: 5.98)

1. COc1nc2c(cc1NS(=O)(=O)c1ccc(OC3CCOCC3)cc1)CCN(C)CC2
2. COc1nc2c(cc1NS(=O)(=O)c1cnc(C3CCCC3)nc1)CCN(C)CC2
Could you please tell me which of these two has the higher pKi: 1 or 2 ? Answer = label.
2
(2: 6.79, 1: 6.14)

1. CCCN1CCc2cc(NS(=O)(=O)c3ccc(C)cc3)c(OC)nc2CC1
2. COc1nc2c(cc1NS(=O)(=O)c1ccc(C3CC(F)CCO3)cc1)CCN(C)CC2 (single isomer, unassigned; diastereomer-2) [Example 109]
# compare pKi for 1 vs 2 ; return the one with the smaller value Answer = label.
1

Hello, the source for this data is patent US10590128B2, in case you need it.
